These entries and their values trace back to patent US20150086555A1.

Target: recombinant soluble homotrimeric HA of A/Wisconsin/67/05 (H3N2) (Influenza A virus A/Wisconsin/67/2005(H3N2))
Test: trimeric HA microarray, transfection supernatant set 5
Settings: remark: other sources report otherwise
QUANTITY_KIND: Trimeric HA Binding: RLU (RLU)

BINDER | READING_UNIT | RESULT
TCN-543 (5081_G23) (antibody, V domains shown) VH: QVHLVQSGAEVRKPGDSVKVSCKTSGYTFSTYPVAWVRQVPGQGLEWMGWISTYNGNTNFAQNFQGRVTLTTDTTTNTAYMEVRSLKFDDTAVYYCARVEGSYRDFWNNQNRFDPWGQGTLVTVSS VL: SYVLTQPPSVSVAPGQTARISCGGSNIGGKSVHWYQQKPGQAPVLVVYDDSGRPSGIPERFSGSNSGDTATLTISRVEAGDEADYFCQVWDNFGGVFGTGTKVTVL | RLU | 37000
TCN-546 (5089_L08) (antibody, V domains shown) VH: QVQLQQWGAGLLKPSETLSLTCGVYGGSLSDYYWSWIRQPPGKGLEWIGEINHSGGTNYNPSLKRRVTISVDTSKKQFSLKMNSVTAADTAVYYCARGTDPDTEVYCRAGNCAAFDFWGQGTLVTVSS VL: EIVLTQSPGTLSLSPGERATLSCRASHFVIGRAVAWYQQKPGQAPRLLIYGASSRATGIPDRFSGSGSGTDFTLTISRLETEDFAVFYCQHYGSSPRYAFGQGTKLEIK | RLU | 28500
TCN-537 (3194_D21) (antibody, V domains shown) VH: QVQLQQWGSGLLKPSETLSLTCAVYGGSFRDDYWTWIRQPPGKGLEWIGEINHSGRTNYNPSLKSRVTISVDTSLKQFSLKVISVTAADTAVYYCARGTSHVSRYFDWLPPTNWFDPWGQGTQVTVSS VL: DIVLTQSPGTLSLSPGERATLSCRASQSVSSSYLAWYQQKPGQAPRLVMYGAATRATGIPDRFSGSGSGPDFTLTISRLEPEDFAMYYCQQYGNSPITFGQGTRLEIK | RLU | 1940
TCN-545 (5082_I15) (antibody, V domains shown) VH: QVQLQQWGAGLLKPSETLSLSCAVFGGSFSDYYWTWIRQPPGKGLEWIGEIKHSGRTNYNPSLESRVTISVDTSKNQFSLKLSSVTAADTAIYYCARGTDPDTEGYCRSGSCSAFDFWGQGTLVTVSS VL: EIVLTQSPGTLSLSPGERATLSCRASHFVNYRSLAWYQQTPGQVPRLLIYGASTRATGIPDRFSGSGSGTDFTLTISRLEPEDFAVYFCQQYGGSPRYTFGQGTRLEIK | RLU | 32000
TCN-539 (5056_A08) (antibody, V domains shown) VH: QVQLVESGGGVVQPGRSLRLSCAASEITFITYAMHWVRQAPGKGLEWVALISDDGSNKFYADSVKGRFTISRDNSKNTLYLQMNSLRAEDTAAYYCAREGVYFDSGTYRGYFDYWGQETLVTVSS VL: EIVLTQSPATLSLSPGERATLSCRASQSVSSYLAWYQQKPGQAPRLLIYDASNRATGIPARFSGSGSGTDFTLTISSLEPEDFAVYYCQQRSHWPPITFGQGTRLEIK | RLU | 58800
TCN-540 (5060_F05) (antibody, V domains shown) VH: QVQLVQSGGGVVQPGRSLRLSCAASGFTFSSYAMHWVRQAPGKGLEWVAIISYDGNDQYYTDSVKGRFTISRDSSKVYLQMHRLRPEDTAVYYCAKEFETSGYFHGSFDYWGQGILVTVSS VL: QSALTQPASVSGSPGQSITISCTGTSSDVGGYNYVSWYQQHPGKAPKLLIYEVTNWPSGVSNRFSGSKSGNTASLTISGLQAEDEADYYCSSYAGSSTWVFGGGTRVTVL | RLU | 53000
